Values were extracted from patent US7737155B2.

# experimental system: recombinant human nicotinic acid receptor (NAR) (Homo sapiens)
# Sequence (Q8TDS4 whole entry): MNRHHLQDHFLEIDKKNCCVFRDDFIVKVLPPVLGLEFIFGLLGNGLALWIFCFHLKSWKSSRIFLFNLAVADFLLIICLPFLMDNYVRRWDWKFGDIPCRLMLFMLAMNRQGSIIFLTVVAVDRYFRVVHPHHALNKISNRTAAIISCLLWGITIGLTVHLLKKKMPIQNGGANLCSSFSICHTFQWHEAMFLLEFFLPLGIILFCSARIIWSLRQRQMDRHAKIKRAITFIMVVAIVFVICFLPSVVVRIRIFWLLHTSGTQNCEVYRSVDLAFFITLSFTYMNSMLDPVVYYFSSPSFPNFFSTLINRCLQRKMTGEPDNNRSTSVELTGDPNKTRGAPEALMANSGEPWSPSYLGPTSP
# assay info: Nicotinic Acid Receptor Assay: inhibition of forskolin-stimulated cAMP accumulation in CHO cells (MesoScale Discovery cAMP kit)
# Format: cell-based
# condition set: CHO cells expressing recombinant human NAR; forskolin-stimulated cAMP; read-out: NA EC50 camp
readout kind: EC50

Answered examples (5):
O=c1[nH]c(=O)c2c(CC3C[C@@H]4CC[C@H]3C4)cc(=O)oc2[nH]1 (stereo partly drawn)	> 1000 nM
O=c1[nH]c(=O)c2c(CC3CCC4CC34)cc(=O)oc2[nH]1 (stereo not drawn)	0.001 to 100 nM
CC(C)(C)CCc1cc(=O)oc2[nH]c(=O)[nH]c(=O)c12	> 1000 nM
COCCCc1cc(=O)oc2[nH]c(=O)[nH]c(=O)c12	100 to 1000 nM
CCc1cc(=O)oc2nc(OCc3ccc(C)c(C(F)(F)F)c3)[nH]c(=O)c12	> 1000 nM

Now look at this entry.
Consider the compound COCC#CCOc1nc2oc(=O)cc(Cc3cccc(F)c3)c2c(=O)[nH]1 and give its measured EC50.
0.001 to 100 nM

###

# experimental system: recombinant human nicotinic acid receptor (NAR) (Homo sapiens)
# assay info: Nicotinic Acid Receptor Assay: inhibition of forskolin-stimulated cAMP accumulation in CHO cells (MesoScale Discovery cAMP kit)
# Format: cell-based
# condition set: CHO cells expressing recombinant human NAR; forskolin-stimulated cAMP; read-out: NA EC50 camp
readout kind: EC50

// known answers, use as guide
CCc1cc(=O)oc2nc(OCc3ccncc3NC(=O)C(C)(C)C)[nH]c(=O)c12	> 1 µM
O=c1[nH]c(=O)c2c(CC3Cc4ccccc4C3)cc(=O)oc2[nH]1	0.1 to 1 µM
CCc1cc(=O)oc2nc(OCc3ccc(-c4ccncc4)cc3F)[nH]c(=O)c12	0.1 to 1 µM

# get_value(readout='EC50', item= CCc1cc(=O)oc2nc(OCC(=O)N(CC)CC)[nH]c(=O)c12 )
0.1 to 1 µM

###

# experimental system: recombinant human nicotinic acid receptor (NAR) (Homo sapiens)
# assay info: Nicotinic Acid Receptor Assay: inhibition of forskolin-stimulated cAMP accumulation in CHO cells (MesoScale Discovery cAMP kit)
# Assay type: cell-based
# condition set: inhibition of forskolin-stimulated cAMP accumulation, CHO cells expressing recombinant human NAR; read-out: NA EC50 camp
readout kind: EC50 (µM)

Below, 3 molecules whose answers are already recorded.
CCCCc1cc(=O)oc2[nH]c(=O)n(CF)c(=O)c12 [Compound 803]	3.45
O=c1nc(OCC(F)F)c2c(CCCC3CC3)cc(=O)oc2[nH]1 [Compound 831]	0.531
N#Cc1c(CCCC2CC2)c2c(=O)[nH]c(=O)[nH]c2oc1=O [Compound 759]	2.33

P: CCCCc1cc(=O)oc2nc(OCC#CC(C)O)[nH]c(=O)c12 (centres unmarked) [Compound 737]
Q: CCCc1cc(=O)oc2[nH]c(=O)n(CF)c(=O)c12 [Compound 817]
Lab notebook, comparison: P versus Q , higher EC50 goes to which? Answer with the label corresponding to your selection.
Q
(Q: 1.45 µM, P: 0.0595 µM)

###

Parameter: pEC50. Scope: all listed entries.
# experimental system: recombinant human nicotinic acid receptor (NAR) (Homo sapiens)
# assay info: Nicotinic Acid Receptor Assay: inhibition of forskolin-stimulated cAMP accumulation in CHO cells (MesoScale Discovery cAMP kit)
# Type: cell-based
# condition set: CHO cells expressing recombinant human NAR; forskolin-stimulated cAMP; read-out: NA EC50 camp
pEC50: −log10 of the molar value.

Would you kindly share the measured pEC50 for CCc1cc(=O)oc2nc(OCC#CC(CC)OC)[nH]c(=O)c12 (stereo not drawn) ?
6.00 to 7.00

I'd like to know its pEC50. The compound in question is CCc1cc(=O)oc2nc(OCc3ncoc3-c3ccccc3)[nH]c(=O)c12
6.00 to 7.00

Value lookup for pEC50; key = CCOC(=O)NOc1nc2oc(=O)cc(CCC3CC3)c2c(=O)[nH]1
6.00 to 7.00

GET /values?readout=pEC50&item= CCOC(=O)CCc1cc(=O)oc2[nH]c(=O)[nH]c(=O)c12
< 6.00

For the compound shown here, CCOC(=O)COc1nc2oc(=O)cc(CC)c2c(=O)[nH]1 , give the reported pEC50.
< 6.00

# input compound: N#Cc1cccc(Cc2cc(=O)oc3[nH]c(=O)[nH]c(=O)c23)c1 ; wanted: its pEC50
< 6.00

GET /values?readout=pEC50&item= CCc1cc(=O)oc2nc(OCC#CC(C)O)[nH]c(=O)c12 (stereo not drawn)
7.00 to 12.00

Can you share its pEC50? I mean this compound: CC1(CCCc2cc(=O)oc3[nH]c(=O)n(C4CCC4)c(=O)c23)CC1
6.00 to 7.00

I have this compound here, CCc1cc(=O)oc2nc(OCc3ccc4c(c3)nnn4C)[nH]c(=O)c12 , and I need its recorded pEC50.
6.00 to 7.00
